Provenance of the data: patent US9078442B2

# System: Phytophthora infestans
# Type: in vivo
# CONDITION LABEL: Phytophthora infestans on tomato, application rate 1200 g/ha, evaluation 5 days after infection
Below, each entry is listed with its recorded Activity [%] (efficacy).
Form entry: value (%) — number only.

Worked cases, Activity [%] (efficacy) given:
[
  {
    "COMPOUND": "CCn1cc(CNC(=O)C2(C)CC(c3cc(Cl)cc(Cl)c3)=NO2)c(C)n1 (stereo not shown)",
    "MEASURED ENDPOINT": "Activity [%] (efficacy)",
    "UNITS TEXT": "%",
    "DATA VALUE": 100
  },
  {
    "COMPOUND": "CCCn1cc(CNC(=O)C2(C)CC(c3cc(Cl)cc(Cl)c3)=NO2)c(C)n1 (stereo not shown)",
    "MEASURED ENDPOINT": "Activity [%] (efficacy)",
    "UNITS TEXT": "%",
    "DATA VALUE": 100
  },
  {
    "COMPOUND": "CCn1cc(CNC(=O)C2(CC)CC(c3cc(Cl)cc(Cl)c3)=NO2)cn1 (stereo not shown)",
    "MEASURED ENDPOINT": "Activity [%] (efficacy)",
    "UNITS TEXT": "%",
    "DATA VALUE": 90
  }
]

Next up:
What measured Activity [%] (efficacy) goes with CCn1cc(CNC(=O)C2(C)CC(c3cc(C)cc(C)c3)=NO2)c(C)n1 (stereo not shown) ? 100

====

# Test system: Mycosphaerella graminicola
# METHOD: In vivo test Mycosphaerella graminicola (wheat)
# CONDITION LABEL: Mycosphaerella graminicola on wheat, application rate 500 g/ha, evaluation 21-28 days after inoculation
MEASURED ENDPOINT: Activity [%] (efficacy)
Express the reported value numerically, then name its unit.

Worked cases, Activity [%] (efficacy) given:
[
  {
    "COMPOUND": "CC1(C(=O)Nc2cccc(CC(=O)O)c2)CC(c2cc(Cl)cc(Cl)c2)=NO1 (centres unmarked) [Example 1.036]",
    "DATA VALUE": "73%"
  },
  {
    "COMPOUND": "CC1(C(=O)NCC2CC2)CC(c2cc(Cl)cc(Cl)c2)=NO1 (centres unmarked) [Example 6.431]",
    "DATA VALUE": "100%"
  },
  {
    "COMPOUND": "CCn1cc(NC(=O)C2(C)CC(c3cc(Cl)cc(Cl)c3)=NO2)c(C)n1 (centres unmarked) [Example 1.017]",
    "DATA VALUE": "88%"
  }
]

What measured Activity [%] (efficacy) goes with CC(C)NC(=O)C1(C)CC(c2cc(Cl)cc(Cl)c2)=NO1 (centres unmarked) [Example 6.165] ? 100%

What measured Activity [%] (efficacy) goes with CCn1cc(CNC(=O)C2(C)CC(c3cc(C(F)(F)F)cc(C(F)(F)F)c3)=NO2)c(C)n1 (centres unmarked) [Example 1.224] ? 95%

What measured Activity [%] (efficacy) goes with CC1(C(=O)NCC2CCCCC2)CC(c2cc(Cl)cc(Cl)c2)=NO1 (centres unmarked) [Example 6.430] ? 81%

What measured Activity [%] (efficacy) goes with CC1(C(=O)NCc2ccccc2C(=O)O)CC(c2cc(Cl)cc(Cl)c2)=NO1 (centres unmarked) [Example 1.315] ? 100%

What measured Activity [%] (efficacy) goes with CC1(C(=O)NCC(F)(F)F)CC(c2cc(Cl)cc(Cl)c2)=NO1 (centres unmarked) [Example 6.377] ? 100%
